# Test system: OVCAR-8 ovarian
# test_details: NCI-60 one-dose screen, 48 h (100 = growth as untreated, 0 = no growth, -100 = all killed)
# condition_parameters: 10 µM unless noted
About 83,000 compounds went through this panel and 20% of them were active in at least one assay; those are over-represented in the sample as a whole.
growth: recorded values
Provide the reading as a plain figure in %.

compound	target_or_system	assay_metric	numeric_value
O=P(O)(O)OCC1OC(n2cnc3c(NCc4ccccc4)ncnc32)C(O)C1O (centres undefined)	OVCAR-8 ovarian	growth	11.5
CCN(CC)c1ccc(N2C(=O)/C(=C/c3cccs3)SC2=S)cc1	OVCAR-8 ovarian	growth	99.6
Cc1ccc(/C=C(\C#N)C(=O)Nc2ncc(Cc3cc(Cl)ccc3Cl)s2)o1	OVCAR-8 ovarian	growth	49.8

Now turn to the next compound.
Suppose we examine the compound `C=C(CN1CC=CCC1)[C@@H]1CC[C@]2(CO)CC[C@]3(C)[C@H](CC[C@@H]4[C@@]5(C)CC[C@H](O)C(C)(C)[C@@H]5CC[C@]43C)[C@@H]12` ; what growth value has been reported?
101

---

# System: MDA-MB-435 melanoma
# test_details: NCI-60 one-dose screen, 48 h
# condition_parameters: 10 µM unless noted
Compounds without any hit were thinned out: in the full panel of roughly 83,000, 20% have a hit. The source made the active and inactive calls. The calls were made as follows: active = growth percent below 10; inactive = the rest.
Could you please pick one outcome from this set? active, inactive

Each compound tested received a call. Report the one for `O=C(Nc1cccc(NC(=O)C2CCCCC2)c1)c1ccccn1` .
inactive

Each compound tested received a call. Report the one for `COc1ccc(-c2nnc(SCC(=O)Nc3ccc(/C(C)=N\O)cc3)n2-c2ccccc2)cc1OC` .
inactive

---

# Tested on: RPMI-8226 leukemia
# test_details: NCI-60 one-dose screen, 48 h
# condition_parameters: 10 µM unless noted
The panel holds about 83,000 compounds, 20% with a hit somewhere; the sample as a whole holds those more often. Active and inactive are the calls of the source. How the source made its calls: active means growth percent below 10; inactive means the rest.
Could you please pick one outcome from this set? yes = active, no = inactive

Some entries whose results are on file:
structure_smiles	assigned_label
COC1=CC(c2ccc[nH]2)=N/C1=C\c1[nH]c(C)c(CC(=O)OCc2ccccc2)c1C	yes
COC(=O)C1=Nc2ccc(F)cc2/C1=C\c1sc(Nc2ccc(O)cc2)nc1O	no

Each molecule tested received a call. Report the one for `O=C1/C(=C/c2ccc(C(F)(F)F)cc2)COc2ccc(O)c(O)c21` .
yes

Each molecule tested received a call. Report the one for `O=C(Nc1ccccc1)c1sc(-c2ccccc2)cc1O` .
no

Each molecule tested received a call. Report the one for `CN(C)c1ccc(C(=NO)c2ccc(N(C)C)cc2)cc1` .
no

Each molecule tested received a call. Report the one for `Nc1c(C(=O)Nc2ccncc2)sc2nc3c(cc12)CCCCC3` .
no

Each molecule tested received a call. Report the one for `CN(C)c1ccc(/C=C2/C=C(c3ccccc3)OC2=O)cc1` .
no

Each molecule tested received a call. Report the one for `COc1ccc(OC)c(Nc2nnc(-c3ccc(Cl)cc3)o2)c1` .
no

Each molecule tested received a call. Report the one for `COC(=O)c1c2c(c(C)[n+]([O-])c1C)C(=O)C=CC2=O` .
yes

Each molecule tested received a call. Report the one for `CNC(=O)c1cc(Oc2ccc3nc(NC(=O)Nc4ccc(Cl)c(Cl)c4)sc3c2)ccn1` .
no

Each molecule tested received a call. Report the one for `Cc1cc2nc(-c3c(-c4ccc(F)cc4)nc4sccn34)[nH]c2cc1C` .
no
